assay: Rat PK PBL cassette (i.v.); format: in vivo, Sprague-Dawley rat; settings: Sprague-Dawley, plasma, iv; male SD rat, 0.2 mg/kg i.v. cassette, n = 1; read-out: Elim. t1/2 (converted)
readout_name: half-life (h)

> print(dat)
                               compound  readout.name  units.symbol  measurement
1    COc1ccc(CNCc2cccc(-c3ccccc3)c2)cc1     half-life             h         1.18
2  COc1ccc(CNCc2ccc3c(c2)OC(F)(F)O3)cc1     half-life             h         1.33

1: COc1ccc(CNCc2ccc(-c3cccc(C#N)c3)cc2)cc1
2: COc1ccc(CNCc2cccc3ccccc23)cc1 [ML133, reference compound]
3: COc1ccc(CNCc2cncc3ccccc23)cc1
List these items ordered by half-life, big to small. Provide your answer as the labels ordered per the instruction.
1, 2, 3
(1: 1.66 h, 2: 0.75 h, 3: 0.29 h)

----------
Biological target: human Kir2.1 (Homo sapiens)
Construct: expressed in transfected cells
Assay: Kir2.1 manual patch clamp (MPC) assay
Assay type: cell-based
Details: pH 7.4
Description: Manual Patch Claim Assay Experimental Conditions Whole-cell patch-clamp electrophysiology was used to record K ir2.1 currents from a stably transfected monoclonal T-Rex-HEK-293 cell line with a tetracycline-inducible promoter expressing human Kir2.1, as described previously1 cultured in a 5% CO2 incubator at 37°C. […] Kir2.1 currents were recorded at room temperature using an AxoPatch 200B amplifier with Clampex 10.7 software (Molecular Devices, USA). […]
Listing: Fold more potent than ML133 in MPC of selected compounds

These solved cases illustrate the format of a correct answer.
> print(dat)
                                   compound              target.of.assay                        readout.name  measurement
1  COc1ccc(CNCc2ccc(-c3cccc(F)c3)cc2)cc1 [Compound 5p]  human Kir2.1 (Homo sapiens)  Fold more potent than ML133 in MPC     3–5 fold
2  COc1ccc(CNCc2cccc(-c3ccccc3)c2)cc1 [Compound 5j]  human Kir2.1 (Homo sapiens)  Fold more potent than ML133 in MPC     3–5 fold
3  COc1ccc(CNCc2ccc(-c3cccc(OC)c3)cc2)cc1 [Compound 5s]  human Kir2.1 (Homo sapiens)  Fold more potent than ML133 in MPC     3–5 fold

Fill in the blank: the reported Fold more potent than ML133 in MPC of COc1ccc(CNCc2ccc(-c3cccc(C#N)c3)cc2)cc1 [Compound 5t] is ____.
3–5 fold

----------
Experiment: Rat PK PBL cassette (i.v.)
Format: in vivo, Sprague-Dawley rat
Details: Sprague-Dawley, plasma, iv; male SD rat, 0.2 mg/kg i.v. cassette, n = 1; read-out: AUC
Procedure: While ML133 has found use as a Kir2.1 tool molecule across many disease models, the in vivo PK of this and related compounds within the dibenzylamine chemotype have not previously been characterized. […] Specifically, Sprague–Dawley (SD) rats were given 0.2 mg/kg of each Kir2.1 inhibitor (i.v. dosing, 4 compounds +1 control, total dose 1 mg/kg) with PK measured across set time points up to 24 h. […]
readout_name: AUC (ng·h/mL)

> print(dat)
                                    molecule  readout.name  measurement
 1  COc1ccc(CNCc2ccc3c(c2)OC(F)(F)O3)cc1 [Compound 5h]           AUC          110
 2  COc1ccc(CNCc2cccc3ccccc23)cc1 [ML133, reference compound]           AUC          104
 3  COc1ccc(CNCc2ccc(-c3cccc(C)c3)cc2)cc1 [Compound 5r]           AUC          162
 4  COc1ccc(CNCc2ccc(-c3cccc(C#N)c3)cc2)cc1 [Compound 5t]           AUC          165
 5  COc1ccc(CNCc2ccc(-c3ccccc3)cc2)cc1 [Compound 5k]           AUC          148
 6  COc1ccc(CNCc2cncc3ccccc23)cc1 [Compound 5b]           AUC          183
 7  COc1ccc(CNCc2ccc(-c3cccc(OC)c3)cc2)cc1 [Compound 5s]           AUC          189
 8  COc1ccc(CNCc2ccc(-c3cccc(F)c3)cc2)cc1 [Compound 5p]           AUC          109
 9  COc1ccc(CNCc2cccc(-c3ccccc3)c2)cc1 [Compound 5j]           AUC          105
10  [2H]C([2H])([2H])Oc1ccc(CNCc2cccc3ccccc23)cc1 [Compound 7]           AUC          146

----------
target: human Kir2.1 (Homo sapiens, UniProt P63252); construct: expressed in transfected cells; test: Kir2.1 manual patch clamp (MPC) assay; assay type: cell-based; settings: % inhibition of Ba2+-sensitive current at highest tested concentration (3–30 μM), pH 7.4
Sequence (P63252 whole entry): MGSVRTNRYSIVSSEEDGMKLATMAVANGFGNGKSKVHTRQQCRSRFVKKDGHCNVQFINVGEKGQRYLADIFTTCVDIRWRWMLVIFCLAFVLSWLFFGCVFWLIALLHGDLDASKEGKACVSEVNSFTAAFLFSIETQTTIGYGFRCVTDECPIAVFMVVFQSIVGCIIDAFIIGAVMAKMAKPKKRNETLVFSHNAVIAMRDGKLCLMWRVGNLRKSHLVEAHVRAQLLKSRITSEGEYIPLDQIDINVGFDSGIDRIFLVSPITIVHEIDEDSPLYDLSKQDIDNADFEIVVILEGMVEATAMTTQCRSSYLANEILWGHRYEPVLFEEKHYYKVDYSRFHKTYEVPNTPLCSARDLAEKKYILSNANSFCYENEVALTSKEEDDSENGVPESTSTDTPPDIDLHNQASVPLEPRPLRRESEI
readout_name: Emax (%)

> print(dat)
                                   compound  units.symbol  measurement
1      COc1ccc(CNCc2ccc3c(c2)OC(F)(F)O3)cc1             %           92
2  [2H]C([2H])([2H])Oc1ccc(CNCc2cccc3ccccc23)cc1             %           82
3    COc1ccc(CNCc2ccc(-c3cccc(OC)c3)cc2)cc1             %          100
4        COc1ccc(CNCc2cccc(-c3ccccc3)c2)cc1             %          100
5  COc1ccc(CNCc2cccc3ccccc23)cc1 [ML133, reference compound]             %           99

----------
molecular target: human Kir2.1 (Homo sapiens); construct: expressed in transfected cells; assay: Kir2.1 thallium flux assay; type: cell-based; conditions: T-REx-HEK-293 cells expressing human Kir2.1; 4PL fit; top concentration 30 μM; read-out: Thallium Flux Potency IC50
readout_name: IC50 (µM)

> print(dat)
                           substance.smiles  units.symbol  measurement
1  [2H]C([2H])([2H])Oc1ccc(CNCc2cccc3ccccc23)cc1            µM         11.1
2     COc1ccc(CNCc2ccc(-c3cccc(F)c3)cc2)cc1            µM          8.1
3       COc1ccc(CNCc2ccc(-c3ccccc3F)cc2)cc1            µM         10.7

I: COc1ccc(CNCc2ccc(-c3cccc(C)c3)cc2)cc1
II: COc1ccc(CNCc2ccc(-c3ccncc3)cc2)cc1
Of I and II , whose reported IC50 is the larger number? Reply briefly: the label of your chosen item.
II
(II: 12.5 µM, I: 8.5 µM)

----------
Molecular target: Kir2.2 (Homo sapiens, UniProt Q14500)
Sequence (Q14500 1-433): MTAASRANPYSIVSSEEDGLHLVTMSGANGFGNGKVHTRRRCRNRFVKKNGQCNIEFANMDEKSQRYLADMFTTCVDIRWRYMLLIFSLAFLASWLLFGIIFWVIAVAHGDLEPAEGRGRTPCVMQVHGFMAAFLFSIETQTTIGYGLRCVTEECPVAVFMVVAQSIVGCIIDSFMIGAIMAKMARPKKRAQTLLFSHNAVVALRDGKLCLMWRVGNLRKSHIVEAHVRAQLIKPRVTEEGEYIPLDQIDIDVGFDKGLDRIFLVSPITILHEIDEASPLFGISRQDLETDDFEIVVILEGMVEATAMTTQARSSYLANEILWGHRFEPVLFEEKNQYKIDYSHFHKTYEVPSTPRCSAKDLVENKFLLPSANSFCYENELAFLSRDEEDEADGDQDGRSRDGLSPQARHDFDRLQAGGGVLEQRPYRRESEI
Experiment: Kir2.2 manual patch clamp (MPC)
readout_name: IC50 (nM)
Number only, in nM; omit the unit.

Fill in the blank: the reported IC50 of COc1ccc(CNCc2ccc(-c3cccc(OC)c3)cc2)cc1 [Compound 5s] is ____.
750

----------
target: human Kir2.1 (Homo sapiens, UniProt P63252); construct: expressed in transfected cells; test: Kir2.1 thallium flux assay; type: cell-based; conditions: efficacy from 4PL fit, relative to ML133
readout_name: Thallium Flux Efficacy (% Inhibition)

These solved cases illustrate the format of a correct answer.
> print(dat)
                           substance.smiles                           readout.name  measurement
1  O=S1(=O)CCCN1c1ccc(CNCc2cccc3ccccc23)cc1  Thallium Flux Efficacy (% Inhibition)     inactive
2  [2H]C([2H])([2H])Oc1ccc(CNCc2ccc(-c3cccc(OC)c3)cc2)cc1  Thallium Flux Efficacy (% Inhibition)         100%
3        c1ccc2c(c1)CN(Cc1cccc3ccccc13)CCO2  Thallium Flux Efficacy (% Inhibition)     inactive
4              COc1ccc(CNCc2cccn3ccnc23)cc1  Thallium Flux Efficacy (% Inhibition)     inactive
5      CP(C)(=O)c1ccc(CNCc2cccc3ccccc23)cc1  Thallium Flux Efficacy (% Inhibition)     inactive

Fill in the blank: the reported Thallium Flux Efficacy (% Inhibition) of `[2H]C([2H])([2H])Oc1ccc(CNCc2ccc(-c3cccc(OC([2H])([2H])[2H])c3)cc2)cc1` is ____.
100%

Fill in the blank: the reported Thallium Flux Efficacy (% Inhibition) of `COCCOc1ccc(CNCc2cccc3ccccc23)cc1` is ____.
inactive

Fill in the blank: the reported Thallium Flux Efficacy (% Inhibition) of `[2H]C([2H])([2H])Oc1cccc(-c2ccc(CNCc3ccc(OC)cc3)cc2)c1` is ____.
100%
